# system: bovine cardiac myofibrils (full-length cardiac myosin ATPase in the native sarcomere) (Bos taurus (Bovine))
# experiment description: Skinned bovine cardiac myofibril ATPase assay (PK/LDH-coupled)
# Assay type: biochemical
# assay context: Ca2+ activating to 75% of maximal rate, concentration giving 15% inhibition
parameter measured: CDMF75 IC15 (µM)

A selection of reference data follows.
>>> reading("COCCn1cc(C(=O)N[C@@H]2CCc3cc(-c4noc(C5CC5)n4)ccc32)cn1 [Compound 510]")
1.9
>>> reading("Cc1nc(-c2ccc3c(c2)OC[C@H]3NC(=O)c2conc2C)no1 [Compound 347]")
0.5
>>> reading("O=C(N[C@@H]1COc2cc(-c3noc(C(F)F)n3)ccc21)c1cc(CO)ccn1 [Compound 707]")
0.9
>>> reading("Cc1noc(-c2ccc3c(c2)OC[C@H]3NC(=O)c2cnn(C)c2C)n1 [Compound 343]")
1.8
>>> reading("Cc1cc(C(=O)NC2CCc3cc(-c4nnn(C)n4)ccc32)ccn1 (stereo not shown) [Compound 148]")
2.9
>>> reading("Cc1nc(-c2ccc3c(c2)OC[C@H]3NC(=O)c2cnc(C)o2)no1 [Compound 167]")
1.0

I. Cn1nccc1C(=O)N[C@@H]1CCc2cc(-c3cnccn3)ccc21 [Compound 368]
II. CCc1nc(-c2ccc3c(c2)CC[C@H]3NC(=O)c2cccnc2)no1 [Compound 624]
III. O=C(NC1CCc2cc(-c3noc(C(F)F)n3)ccc21)c1cncs1 (stereo not shown) [Compound 11]
IV. Cc1csc(C(=O)NC2CCc3cc(-c4noc(C(F)F)n4)ccc32)n1 (stereo not shown) [Compound 60]
V. Cc1cc(C(=O)NC2CCc3cc(-c4nc(C(F)F)no4)ccc32)ccn1 (stereo not shown) [Compound 132]
Order by CDMF75 IC15, ascending. Rank the items, then write their labels in that order.
II, III, IV, V, I
(II: 0.4 µM, III: 0.8 µM, IV: 2.3 µM, V: 4.3 µM, I: 17.6 µM)

====

# system: bovine cardiac myofibrils (full-length cardiac myosin ATPase in the native sarcomere) (Bos taurus (Bovine))
# experiment description: Skinned bovine cardiac myofibril ATPase assay (PK/LDH-coupled)
# Assay type: biochemical
# assay context: Ca2+ activating to 75% of maximal rate, concentration giving 15% inhibition
parameter measured: CDMF75 IC15 (µM)

>>> reading("O=C(N[C@@H]1CCc2cc(-c3noc(C(F)F)n3)ccc21)N1CCCC1 [Compound 300]")
12.3

A. O=C(N[C@@H]1CCc2cc(-c3noc(C(F)F)n3)ccc21)c1cc(CO)ccn1 [Compound 666]
B. Cc1cncc(-c2ccc3c(c2)CC[C@H]3NC(=O)c2ccnn2C)n1 [Compound 382]
C. CCc1nc(-c2ccc3c(c2)CC[C@H]3NC(=O)c2coc(CS(C)(=O)=O)n2)no1 [Compound 468]
Order by CDMF75 IC15, ascending. Rank the items, then write their labels in that order.
A, B, C

====

# system: bovine cardiac myofibrils (full-length cardiac myosin ATPase in the native sarcomere) (Bos taurus (Bovine), UniProt Q9BE39)
# Sequence (Q9BE39 whole entry): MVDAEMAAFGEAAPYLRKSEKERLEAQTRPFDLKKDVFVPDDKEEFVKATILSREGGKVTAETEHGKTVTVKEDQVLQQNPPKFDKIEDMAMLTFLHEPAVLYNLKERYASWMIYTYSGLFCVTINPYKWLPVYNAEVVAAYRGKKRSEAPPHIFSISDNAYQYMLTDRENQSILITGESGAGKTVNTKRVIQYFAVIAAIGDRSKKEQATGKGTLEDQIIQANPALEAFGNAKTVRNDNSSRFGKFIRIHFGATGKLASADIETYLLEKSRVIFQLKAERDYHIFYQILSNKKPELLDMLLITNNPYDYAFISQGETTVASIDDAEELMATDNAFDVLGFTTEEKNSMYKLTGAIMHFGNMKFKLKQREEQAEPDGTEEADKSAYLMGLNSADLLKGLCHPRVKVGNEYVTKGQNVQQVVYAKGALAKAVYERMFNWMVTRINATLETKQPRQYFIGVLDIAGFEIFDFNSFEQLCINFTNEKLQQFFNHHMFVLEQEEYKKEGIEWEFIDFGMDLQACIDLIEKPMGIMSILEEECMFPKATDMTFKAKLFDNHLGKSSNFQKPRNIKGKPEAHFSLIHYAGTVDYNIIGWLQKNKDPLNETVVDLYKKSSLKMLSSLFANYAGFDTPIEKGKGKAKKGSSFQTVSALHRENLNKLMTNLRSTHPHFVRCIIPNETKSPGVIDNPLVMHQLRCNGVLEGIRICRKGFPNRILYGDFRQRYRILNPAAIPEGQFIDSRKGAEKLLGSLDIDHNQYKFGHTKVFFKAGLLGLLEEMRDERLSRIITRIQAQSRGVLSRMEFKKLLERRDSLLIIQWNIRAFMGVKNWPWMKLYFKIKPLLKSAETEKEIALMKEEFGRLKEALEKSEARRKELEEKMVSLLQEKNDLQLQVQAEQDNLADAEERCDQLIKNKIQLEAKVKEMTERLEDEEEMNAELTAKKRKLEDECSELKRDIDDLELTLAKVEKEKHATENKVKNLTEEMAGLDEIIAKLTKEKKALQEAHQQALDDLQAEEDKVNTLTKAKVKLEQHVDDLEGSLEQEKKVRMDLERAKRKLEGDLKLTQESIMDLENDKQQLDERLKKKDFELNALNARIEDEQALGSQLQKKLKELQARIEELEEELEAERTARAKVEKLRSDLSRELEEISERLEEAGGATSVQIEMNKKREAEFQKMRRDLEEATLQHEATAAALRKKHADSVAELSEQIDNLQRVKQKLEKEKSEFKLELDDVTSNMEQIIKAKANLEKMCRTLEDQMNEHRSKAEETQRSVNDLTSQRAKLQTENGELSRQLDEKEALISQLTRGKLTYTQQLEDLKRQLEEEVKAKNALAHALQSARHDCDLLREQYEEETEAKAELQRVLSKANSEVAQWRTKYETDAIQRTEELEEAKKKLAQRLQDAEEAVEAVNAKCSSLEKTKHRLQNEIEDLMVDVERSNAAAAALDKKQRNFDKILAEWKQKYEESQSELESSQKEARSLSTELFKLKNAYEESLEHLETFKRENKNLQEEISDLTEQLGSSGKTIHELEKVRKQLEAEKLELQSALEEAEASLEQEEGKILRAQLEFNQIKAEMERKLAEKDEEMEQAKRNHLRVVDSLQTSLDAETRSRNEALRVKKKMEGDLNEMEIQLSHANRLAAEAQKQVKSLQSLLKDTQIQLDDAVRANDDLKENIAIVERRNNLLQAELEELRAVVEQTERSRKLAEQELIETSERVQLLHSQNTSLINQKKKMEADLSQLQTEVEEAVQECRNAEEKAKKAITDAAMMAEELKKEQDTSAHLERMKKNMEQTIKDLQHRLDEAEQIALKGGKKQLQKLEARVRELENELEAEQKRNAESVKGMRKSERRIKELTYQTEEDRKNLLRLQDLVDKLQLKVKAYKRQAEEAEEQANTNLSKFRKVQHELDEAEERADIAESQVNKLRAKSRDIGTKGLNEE
# Sequence (P85100 whole entry partner): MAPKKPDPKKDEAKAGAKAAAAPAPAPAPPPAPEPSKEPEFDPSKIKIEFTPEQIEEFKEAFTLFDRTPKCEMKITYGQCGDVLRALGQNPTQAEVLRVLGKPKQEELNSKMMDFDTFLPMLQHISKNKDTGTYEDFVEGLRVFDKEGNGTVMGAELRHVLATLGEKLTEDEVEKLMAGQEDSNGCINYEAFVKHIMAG
# Sequence (Q3SZE5 whole entry partner): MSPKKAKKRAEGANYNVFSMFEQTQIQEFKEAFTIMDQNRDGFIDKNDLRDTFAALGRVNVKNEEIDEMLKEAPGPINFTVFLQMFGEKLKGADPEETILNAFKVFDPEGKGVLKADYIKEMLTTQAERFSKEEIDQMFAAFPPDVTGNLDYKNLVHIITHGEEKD
# experiment description: Skinned bovine cardiac myofibril ATPase assay (PK/LDH-coupled)
# assay context: Ca2+ activating to 75% of maximal rate, read-out: CDMF75 IC50
# Experimental: To evaluate the effect of compounds on the ATPase activity of full-length cardiac myosin in the context of the native sarcomere, skinned myofibril assays were performed. […] Small molecule agents were assessed for their ability to inhibit the steady-state ATPase activity of bovine cardiac myofibrils using pyruvate kinase and lactate dehydrogenase (PK/LDH)-coupled enzyme system. This assay regenerates myosin-produced ADP into ATP by oxidizing NADH, producing an absorbance change at 340 nm. […]
pIC50: −log10 of the molar value.
parameter measured: pIC50

A selection of reference data follows.
>>> reading("Cc1cc(C(=O)N[C@@H]2CCc3cc(-c4nnn(C)n4)ccc32)ccn1 [Compound 147]")
5.21
>>> reading("CCc1nc(-c2ccc3c(c2)CC[C@H]3NC(=O)c2cccc(C)n2)no1 [Compound 594]")
5.24
>>> reading("CCc1nc(-c2ccc3c(c2)CC[C@H]3NC(=O)c2cnn(CC(N)=O)c2)no1 [Compound 475]")
5.42

a. Cc1cc(C(=O)NC2COc3cc(-c4noc(C)n4)ccc32)n(C)n1 (centres unmarked) [Compound 155]
b. CCc1nc(-c2ccc3c(c2)CC[C@H]3NC(=O)c2ccnc(OC)c2)no1 [Compound 557]
c. CCc1cc(-c2ccc3c(c2)OC[C@H]3NC(=O)c2ccnn2C)no1 [Compound 421]
d. Cc1nc(-c2ccc3c(c2)CC[C@H]3NC(=O)c2cnn(CCO)c2)no1 [Compound 520]
Order by pIC50, ascending. Rank the items, then write their labels in that order.
d, a, b, c

====

# system: bovine cardiac myofibrils (full-length cardiac myosin ATPase in the native sarcomere) (Bos taurus (Bovine), UniProt Q9BE39)
# experiment description: Skinned bovine cardiac myofibril ATPase assay (PK/LDH-coupled)
# assay context: Ca2+ activating to 75% of maximal rate, read-out: CDMF75 IC50
pIC50: −log10 of the molar value.
parameter measured: pIC50

>>> reading("CCc1nc(-c2ccc3c(c2)CC[C@H]3NC(=O)c2cnn(C[C@H](C)O)c2)no1 [Compound 541]")
5.28
>>> reading("O=C(NC1CCc2cc(-c3noc(C(F)F)n3)ccc21)c1cncs1 (stereo not shown) [Compound 11]")
5.47
>>> reading("Cc1nc(-c2ccc3c(c2)OC[C@H]3NC(=O)c2cnc(C)o2)no1 [Compound 167]")
5.42

====

# system: bovine cardiac myofibrils (full-length cardiac myosin ATPase in the native sarcomere) (Bos taurus (Bovine), UniProt Q9BE39)
# experiment description: Skinned bovine cardiac myofibril ATPase assay (PK/LDH-coupled)
# assay context: Ca2+ activating to 75% of maximal rate, read-out: CDMF75 IC50
parameter measured: IC50 (µM)

A selection of reference data follows.
>>> reading("CCc1nc(-c2ccc3c(c2)CC[C@H]3NC(=O)c2cnon2)no1 [Compound 615]")
1.4
>>> reading("CCc1cc(-c2ccc3c(c2)OC[C@H]3NC(=O)c2cnc(C)o2)no1 [Compound 422]")
1.5
>>> reading("Cc1cc(C(=O)N[C@@H]2COc3cc(-c4noc(C5CC5)n4)ccc32)n(C)n1 [Compound 233]")
1.1
>>> reading("Cn1nccc1C(=O)N[C@@H]1COc2cc(-c3noc(C(F)F)n3)ccc21 [Compound 124]")
0.9
>>> reading("[2H]C([2H])([2H])c1nc(-c2ccc3c(c2)CC[C@H]3NC(C)=O)no1 [Compound 408]")
12.8
>>> reading("CCc1nc(-c2ccc3c(c2)CC[C@H]3NC(=O)c2ccnnc2)no1 [Compound 632]")
1.5
>>> reading("COC(=O)N[C@@H]1CCc2cc(-c3noc(C(C)C)n3)ccc21 [Compound 307]")
2.9

I. CCc1nc(-c2ccc3c(c2)CC[C@H]3NC(=O)OC2CCC2)no1 [Compound 321]
II. Cc1cc(C(=O)NC2CCc3cc(-c4noc(C)n4)ccc32)n(C)n1 (stereo not drawn) [Compound 47]
Select one. Lower IC50: I or II Use the label to indicate which entry you chose.
I

====

# system: bovine cardiac myofibrils (full-length cardiac myosin ATPase in the native sarcomere) (Bos taurus (Bovine), UniProt Q9BE39)
# experiment description: Skinned bovine cardiac myofibril ATPase assay (PK/LDH-coupled)
# assay context: Ca2+ activating to 75% of maximal rate, read-out: CDMF75 IC50
parameter measured: IC50 (µM)

>>> reading("Cc1nc(-c2ccc3c(c2)CCC3NC(=O)c2ccccc2)no1 (centres unmarked) [Compound 2]")
2

I. CC(C)c1nc(-c2ccc3c(c2)CC[C@H]3NC(=O)c2cn[nH]c2)no1 [Compound 488]
II. Cc1cc(C(=O)N[C@@H]2CCc3cc(-c4cc(C(F)F)on4)ccc32)ccn1 [Compound 169]
III. O=C(N[C@@H]1CCc2cc(-c3noc(C4CC4)n3)ccc21)c1cnn(CCCO)c1 [Compound 601]
Order by IC50, ascending. Rank the items, then write their labels in that order.
II, I, III
(II: 1.8 µM, I: 4.3 µM, III: 7.3 µM)

P. CCc1nc(-c2ccc3c(c2)CC[C@H]3NC(=O)c2ccn(C[C@@H](C)O)c(=O)c2)no1 [Compound 560]
Q. CCc1nc(-c2ccc3c(c2)CC[C@H]3NC(=O)c2cccc(C(=O)OC)c2)no1 [Compound 648]
Rank P against Q by their IC50 values and give the higher one. Use the label to indicate which entry you chose.
P
(P: 4.7 µM, Q: 1.3 µM)

====

# system: bovine cardiac myofibrils (full-length cardiac myosin ATPase in the native sarcomere) (Bos taurus (Bovine), UniProt Q9BE39)
# experiment description: Skinned bovine cardiac myofibril ATPase assay (PK/LDH-coupled)
# assay context: Ca2+ activating to 75% of maximal rate, read-out: CDMF75 IC50
parameter measured: IC50 (µM)

>>> reading("Cc1cc(C(=O)N[C@@H]2CCc3cc(-c4nc(C(F)F)no4)ccc32)n(C)n1")
4.7
>>> reading("CCc1nc(-c2ccc3c(c2)CC[C@H]3NC(=O)c2cnn(C3CN(C(N)=O)C3)c2)no1")
7.8

I. CN(C)C(=O)N[C@@H]1CCc2cc(-c3noc(C(F)F)n3)ccc21
II. CC(=O)N[C@@H]1COc2cc(-c3noc(C(F)F)n3)ccc21
III. Cc1nc(-c2ccc3c(c2)CCC3NC(=O)c2nnn(C)n2)no1 (centres unmarked)
Please list the entries, largest IC50 first. Rank the items, then write their labels in that order.
I, II, III
(I: 30.9 µM, II: 7.9 µM, III: 5.1 µM)
